- EXPERIMENT SUMMARY: Stability in CD1 mouse liver microsomes assessed as compound remaining at 1 uM incubated for 60 mins by LC/MS analysis
- Assay type: ADME, Microsome
- CONDITION CONTEXT: read-out: Stability
Recorded remaining at 1 h, 1 µM, one value per entry.

GIVEN SMILES: COc1cc(-c2cncc(-c3ccc(OC4CCNCC4)cc3)c2C)cc(OC)c1OC
remaining at 1 h, 1 µM, %: 39.3

GIVEN SMILES: COc1cc(-c2cncc(-c3ccc(C4=CCNCC4)cc3)c2C)cc(OC)c1OC
remaining at 1 h, 1 µM, %: 73.9

GIVEN SMILES: COc1cc(-c2cncc(-c3ccc(N4CCN(S(C)(=O)=O)CC4)cc3)c2C)cc(OC)c1OC
remaining at 1 h, 1 µM, %: 100

GIVEN SMILES: COc1cc(-c2cncc(-c3ccc(N4CCNCC4)cc3)c2C)cc(OC)c1OC
remaining at 1 h, 1 µM, %: 64.6

GIVEN SMILES: COc1cc(-c2cncc(-c3ccc(C4CCN(C)CC4)cc3)c2C)cc(OC)c1OC
remaining at 1 h, 1 µM, %: 55.5
